test: free drug level (fu) in human plasma; format: in vitro ADME
Property Label: fraction unbound

Which measured fraction unbound value corresponds to CS(=O)(=O)N1CCN(C(=O)c2nccc3cc(Nc4n[nH]c5cccnc45)ccc23)CC1 [Example 6] ? 0.134

Which measured fraction unbound value corresponds to O=C(NC1CC(F)(F)C1)c1nccc2cc(Nc3n[nH]c4cccnc34)ccc12 [Example 9] ? 0.09

Which measured fraction unbound value corresponds to O=C(c1nccc2cc(Nc3n[nH]c4ncccc34)ccc12)N1CCC(F)(F)CC1 [Example 28] ? 0.218

P: O=C(NC1CC(F)(F)C1)c1nccc2cc(Nc3n[nH]c4ncccc34)ccc12 [Example 27]
Q: O=C(c1nccc2cc(Nc3n[nH]c4cccnc34)ccc12)N1CCCC(F)(F)C1 [Example 4]
# min-compare on fraction unbound between P and Q Indicate which entry you chose by stating its label. Q

====

assay: in vitro DMPK: rat intrinsic and predicted hepatic clearance; format: in vitro ADME; conditions: predicted
Property Label: Rat CLHEP (mL/min/kg)

# annotated cases, reported Rat CLHEP shown
Which measured Rat CLHEP value corresponds to `O=C(c1nccc2cc(Nc3n[nH]c4cccnc34)ccc12)N1CCCC(F)(F)C1` ? 64.9

Which measured Rat CLHEP value corresponds to O=C(NC1CC(F)C1)c1nccc2cc(Nc3n[nH]c4cccnc34)ccc12 (centres unmarked) ? 22.2

Which measured Rat CLHEP value corresponds to COC1CC(NC(=O)c2nccc3cc(Nc4n[nH]c5cccnc45)ccc23)C1 (centres unmarked) ? 19.3

a: O=C(NC1CCOC1)c1nccc2cc(Nc3n[nH]c4cccnc34)ccc12 (centres unmarked)
b: O=C(NC1CC(F)(F)C1)c1nccc2cc(Nc3n[nH]c4cccnc34)ccc12
# min-compare on Rat CLHEP between a and b Indicate which entry you chose by stating its label. a
(a: 2.71 mL/min/kg, b: 22.3 mL/min/kg)

====

Experiment: free drug level (fu) in rat plasma
Assay type: in vitro ADME
Excerpt: As the only drug that interact with mGlu4 is free drug, the compounds of the present invention have unexpectedly exceptional profiles as putative drug candidates.
Property Label: fraction unbound

Which measured fraction unbound value corresponds to `O=C(c1nccc2cc(Nc3n[nH]c4cccnc34)ccc12)N1CCC(F)(F)CC1` ? 0.168

Which measured fraction unbound value corresponds to `CS(=O)(=O)N1CCN(C(=O)c2nccc3cc(Nc4n[nH]c5cccnc45)ccc23)CC1` ? 0.328

Which measured fraction unbound value corresponds to O=C(NC1CCOC1)c1nccc2cc(Nc3n[nH]c4cccnc34)ccc12 (stereo not shown) ? 0.229

Which measured fraction unbound value corresponds to COC1CC(NC(=O)c2nccc3cc(Nc4n[nH]c5cccnc45)ccc23)C1 (stereo not shown) ? 0.089

Which measured fraction unbound value corresponds to `O=C(c1nccc2cc(Nc3n[nH]c4ncccc34)ccc12)N1CCC(F)(F)CC1` ? 0.179

Which measured fraction unbound value corresponds to `O=C(NC1CC(F)(F)C1)c1nccc2cc(Nc3n[nH]c4cccnc34)ccc12` ? 0.076

Which measured fraction unbound value corresponds to `O=C(c1nccc2cc(Nc3n[nH]c4cccnc34)ccc12)N1CCCC(F)(F)C1` ? 0.158

Which measured fraction unbound value corresponds to `O=C(NC1CC(F)(F)C1)c1nccc2cc(Nc3n[nH]c4ncccc34)ccc12` ? 0.075

I: O=C(NC1CC(F)C1)c1nccc2cc(Nc3n[nH]c4cccnc34)ccc12 (stereo not shown)
II: O=C(c1nccc2cc(Nc3n[nH]c4cccnc34)ccc12)N1CC[C@H](F)C1
# returns the entry with the larger fraction unbound; inputs I and II Indicate which entry you chose by stating its label. II
